B1: glmS ribozyme (parent)
chain: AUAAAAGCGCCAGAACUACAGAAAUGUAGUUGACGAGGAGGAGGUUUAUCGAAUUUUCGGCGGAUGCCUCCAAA

Variants of: B1
experiment-description: self-cleavage kobs at 160 uM GlcN6P; higher = faster cleavage; RNA array
assay-context: with glucosamine-6-phosphate
This sample holds only a part of the variants without activity.
measured-parameter: self-cleavage kobs at 160 uM GlcN6P

* AUAAAAGCGCCAGAACUACAGAAAUGUAGUUGACGAGGAGGAGGUUUAUCGAAUUUUCGGCGGAUUCCCCCAAA | 0.000111 s⁻¹
* AUAAAAGCGCCAGAACUACAGAAAUGUAGUUGACGAGGGGGAGGUUUAUCGAAUUUUCGGCGGAUGCCUCUAAA | 0.00396 s⁻¹
* AUAAAAACGCCAGAACUACAGAAAUGUAGUUGACGAGGAGGAGGUUUAUCGUAUUUUCGGCGCAUGCCUCCAAA | < 1e-05 s⁻¹
* AUAAAAGCGCCAGAACUACAGAAAUGUAGUUGACGAAGAGGAGGUUUAUCGAAGUUUCGGCGGAUGCCUCCAAA | 0.000132 s⁻¹
* AUAAAAGCGCCAGAACUACAGAAAUGUAGUUGACGAGGAAGAGGUUUAUCCAAUUUUCGGCGGAUGCCUCCAAA | < 1e-05 s⁻¹
* AUAAAAGAGCCAGAAUUACAGAAAUGUAUUUGACGAGGAGGAGGUUUAUCGAAUUUUCGGCAGAUGCCUCCAAA | < 1e-05 s⁻¹
* AUAAAAGCGCCAGGACUACAGAAAUGUAGUUGACGAGGAGGAGGUUUAUCGAAUUUUGGGCGGAUGCCUCCAAA | 4.95e-05 s⁻¹
* AUAAAAGCGCCAGAACUACAGAAAUGUAGUUGACGAGGAGGUGGUUUAUCGGAUUUUCGGCGGAUGCCUCCAAA | < 1e-05 s⁻¹
* AUAAAAGUGCCAGAACUACAGAAAUGUAGUUGACGAGGAGGAAGUUUAUCGAAUUUUCGGCGGAUGCCUCCAAA | < 1e-05 s⁻¹
* AUAAAAGAGCCAGAACUACAGAAAUGUAGUUGACGAGGAGGAGGUUUAUCGCAUUUUCGGCGGAUGCCUCCAAA | < 1e-05 s⁻¹
* AUAAAAUCGCCAGAACUACAGAAAUGUAGUUGACGAGGAUGAGGUUUAUCGAAUUUUCGGCGGAUGCCUCCAAA | < 1e-05 s⁻¹
